test-system: acid ceramidase (aCDase) (Homo sapiens, UniProt Q13510)
Sequence (Q13510 22-142): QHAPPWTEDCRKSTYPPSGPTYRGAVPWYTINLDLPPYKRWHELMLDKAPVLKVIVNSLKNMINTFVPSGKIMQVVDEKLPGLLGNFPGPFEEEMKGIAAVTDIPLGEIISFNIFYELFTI
Sequence (Q13510 143-395): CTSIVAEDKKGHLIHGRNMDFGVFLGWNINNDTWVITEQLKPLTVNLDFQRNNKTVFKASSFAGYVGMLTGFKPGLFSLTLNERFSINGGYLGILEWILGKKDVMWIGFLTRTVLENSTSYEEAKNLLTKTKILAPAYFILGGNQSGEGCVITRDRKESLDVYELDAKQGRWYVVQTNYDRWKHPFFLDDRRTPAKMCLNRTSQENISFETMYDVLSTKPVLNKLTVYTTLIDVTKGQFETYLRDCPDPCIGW
procedure-summary: micellar aCDase assay with recombinant human enzyme, HPLC fluorescence detection of sphingosine
metric-name: IC50 (µM)
Give the value in µM but do not write µM after it.

Task item: Answer with reported IC50 of CCCCCCCCCCCCCC(=O)NCC(O)c1ccccc1 (racemic) [DP24a]
Reply: 1.29
